Target: Pyroglutamylated RF-amide peptide receptor (Homo sapiens) (UniProt Q96P65)
Sequence (whole entry): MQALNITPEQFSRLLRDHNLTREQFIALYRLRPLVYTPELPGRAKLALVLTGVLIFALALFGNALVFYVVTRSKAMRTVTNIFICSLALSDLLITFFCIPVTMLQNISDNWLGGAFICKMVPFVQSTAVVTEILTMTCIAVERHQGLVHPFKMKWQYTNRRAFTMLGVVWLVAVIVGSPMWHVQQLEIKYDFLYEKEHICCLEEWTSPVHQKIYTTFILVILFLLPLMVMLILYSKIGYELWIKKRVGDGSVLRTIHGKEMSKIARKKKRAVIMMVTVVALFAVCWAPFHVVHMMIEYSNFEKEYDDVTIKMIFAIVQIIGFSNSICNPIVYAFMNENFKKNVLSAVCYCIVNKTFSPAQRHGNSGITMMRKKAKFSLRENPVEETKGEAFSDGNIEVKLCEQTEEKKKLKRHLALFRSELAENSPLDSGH
Assay: Antagonist activity at DYKDDDDK-flagged human GPR103 receptor expressed in CHO-K1 cells co-expressing G-protein alpha16 assessed as inhibition of 26RFa-induced calcium mobilization after 2 mins by fluorometric analysis
Format: functional, cell-based
Calls of active or inactive are those of the source. The calls are words filed in the database; no cut-off is given here. Residues, ends and D or L forms follow the SMILES beside them. *: point of attachment. NHBn = c1ccc(CN*)cc1
MEASUREMENT NAME: inhibition

[
  {
    "MOLECULE": "C[C@H](NC(=O)[C@H](CCCNC(=N)N)NC(=O)[C@H](Cc1ccccc1)NC(=O)[C@H](CO)NC(=O)[C@H](Cc1ccccc1)NC(=O)CNC(=O)CN)C(N)=O (H-GGFSFRA-NH2)",
    "TEST SYSTEM": "Pyroglutamylated RF-amide peptide receptor (Homo sapiens) (UniProt Q96P65)",
    "MEASUREMENT NAME": "inhibition",
    "RECORDED VALUE": "inactive"
  },
  {
    "MOLECULE": "N=C(N)NCCC[C@@H](NC(=O)[C@H](Cc1ccccc1)NC(=O)[C@H](CO)NC(=O)[C@H](Cc1ccccc1)NC(=O)CNC(=O)CN)C(=O)N[C@@H](Cc1ccccc1)C(N)=O",
    "TEST SYSTEM": "Pyroglutamylated RF-amide peptide receptor (Homo sapiens) (UniProt Q96P65)",
    "MEASUREMENT NAME": "inhibition",
    "RECORDED VALUE": "inactive"
  },
  {
    "MOLECULE": "N=C(N)NCCC[C@H](NC(=O)[C@H](Cc1ccccc1)NC(=O)[C@H](CO)NC(=O)[C@@H](Cc1ccccc1)NC(=O)CNC(=O)CN)C(=O)N[C@@H](Cc1ccccc1)C(N)=O",
    "TEST SYSTEM": "Pyroglutamylated RF-amide peptide receptor (Homo sapiens) (UniProt Q96P65)",
    "MEASUREMENT NAME": "inhibition",
    "RECORDED VALUE": "inactive"
  },
  {
    "MOLECULE": "N=C(N)NCCC[C@H](NC(=O)[C@H](Cc1ccccc1)NC(=O)[C@H](CO)NC(=O)[C@H](Cc1ccccc1)NC(=O)CNC(=O)CN)C(=O)NCc1ccccc1 (H-GGFSFR-NHBn)",
    "TEST SYSTEM": "Pyroglutamylated RF-amide peptide receptor (Homo sapiens) (UniProt Q96P65)",
    "MEASUREMENT NAME": "inhibition",
    "RECORDED VALUE": "inactive"
  },
  {
    "MOLECULE": "C[C@H](NC(=O)[C@H](CO)NC(=O)[C@H](Cc1ccccc1)NC(=O)CNC(=O)CN)C(=O)N[C@@H](CCCNC(=N)N)C(=O)N[C@@H](Cc1ccccc1)C(N)=O (H-GGFSARF-NH2)",
    "TEST SYSTEM": "Pyroglutamylated RF-amide peptide receptor (Homo sapiens) (UniProt Q96P65)",
    "MEASUREMENT NAME": "inhibition",
    "RECORDED VALUE": "inactive"
  },
  {
    "MOLECULE": "CC(C)C[C@H](NC(=O)[C@@H]1CCCN1)C(=O)NCC(=O)N[C@@H](CC(N)=O)C(=O)N[C@@H](CC(C)C)C(=O)N[C@@H](C)C(=O)N[C@@H](CCC(=O)O)C(=O)N[C@@H](CCC(=O)O)C(=O)N[C@@H](CC(C)C)C(=O)N[C@@H](CC(N)=O)C(=O)NCC(=O)N[C@@H](Cc1ccc(O)cc1)C(=O)N[C@@H](CO)C(=O)N[C@@H](CCCNC(=N)N)C(N)=O (H-PLGNLAEELNGYSR-NH2)",
    "TEST SYSTEM": "Pyroglutamylated RF-amide peptide receptor (Homo sapiens) (UniProt Q96P65)",
    "MEASUREMENT NAME": "inhibition",
    "RECORDED VALUE": "inactive"
  },
  {
    "MOLECULE": "CC(C)C[C@H](NC(=O)[C@H](CCC(=O)O)NC(=O)[C@H](CCC(=O)O)NC(=O)[C@H](C)NC(=O)[C@@H](N)CC(C)C)C(=O)N[C@@H](CC(N)=O)C(=O)NCC(=O)N[C@@H](Cc1ccc(O)cc1)C(=O)N[C@@H](CO)C(N)=O (H-LAEELNGYS-NH2)",
    "TEST SYSTEM": "Pyroglutamylated RF-amide peptide receptor (Homo sapiens) (UniProt Q96P65)",
    "MEASUREMENT NAME": "inhibition",
    "RECORDED VALUE": "inactive"
  }
]

Now take the following molecule into account.
Task item: Read the entry CC(C)C[C@H](NC(=O)[C@H](CC(N)=O)NC(=O)CNC(=O)[C@H](CC(C)C)NC(=O)[C@@H]1CCCN1C(=O)CNC(=O)[C@H](CO)NC(=O)[C@@H](N)[C@@H](C)O)C(=O)N[C@@H](C)C(=O)N[C@@H](CCC(=O)O)C(=O)N[C@@H](CCC(=O)O)C(=O)N[C@@H](CC(C)C)C(=O)N[C@@H](CC(N)=O)C(=O)NCC(=O)N[C@@H](Cc1ccc(O)cc1)C(=O)N[C@@H](CO)C(=O)N[C@@H](CCCNC(=N)N)C(=O)N[C@@H](CCCCN)C(N)=O (H-TSGPLGNLAEELNGYSRK-NH2) and write its reported inhibition.
Reply: inactive
